Biological target: Albumin (Bos taurus)
Test: compounds binding labelled BSA control protein – biochemical, small-molecule microarray, Alexa647 label, 635/667 nm fluorescence, artefact control for SMM control protein annotation, profiling panel (AID 1118);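 also: score merges 667 nm emission intensity and signal-to-noise per printed compound spot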
Conditions: BSA-A647 binding, fluorescence 635 nm, higher = more signal
Categories are assigned from the measured composite z-score using these intervals: c1 (below 0.1), c2 (0.1 to below 0.9), c3 (0.9 or more)

COMPOUND	LABEL VALUE
CC(C)[Si](C#C[Si](C(C)C)(C(C)C)C(C)C)(O[C@H](C)c1cn(Cc2ccccc2)nn1)C(C)C	c2
O=C1[C@H]2C=C(Br)[C@H](C[C@@H]2OCCCCCCO)[C@@]12CO2	c1
C#CCOc1ccc(C[C@@H](C(=O)OC)N(CC#C)[C@@H](/C=C/C2CC2)[C@H](O)Cc2ccccc2)cc1	c1

Category of COC(=O)[C@]1(Cc2ccccc2)N=C(c2ccc(OCCCO)cc2)O[C@@H]1c1ccccc1N=[N+]=[N-] , please. c2

Category of COCC(=C=CC[C@H](O)c1ccccc1OCCO)CCO , please. c1

Category of COc1ccc([C@H]2OC[C@@H]3CCC(=O)N32)cc1 , please. c2
